# maps each entry to its EC50
measurement target: T1, cynomolgus monkey SIRPα expressed on ExpiCHO-S cells (cynomolgus monkey, UniProt A0A2K5VYQ9 31-507)
T1 construct: whole, on cells; also called cySIRPα; ExpiCHO-S (cySIRPα)
T1 sequence: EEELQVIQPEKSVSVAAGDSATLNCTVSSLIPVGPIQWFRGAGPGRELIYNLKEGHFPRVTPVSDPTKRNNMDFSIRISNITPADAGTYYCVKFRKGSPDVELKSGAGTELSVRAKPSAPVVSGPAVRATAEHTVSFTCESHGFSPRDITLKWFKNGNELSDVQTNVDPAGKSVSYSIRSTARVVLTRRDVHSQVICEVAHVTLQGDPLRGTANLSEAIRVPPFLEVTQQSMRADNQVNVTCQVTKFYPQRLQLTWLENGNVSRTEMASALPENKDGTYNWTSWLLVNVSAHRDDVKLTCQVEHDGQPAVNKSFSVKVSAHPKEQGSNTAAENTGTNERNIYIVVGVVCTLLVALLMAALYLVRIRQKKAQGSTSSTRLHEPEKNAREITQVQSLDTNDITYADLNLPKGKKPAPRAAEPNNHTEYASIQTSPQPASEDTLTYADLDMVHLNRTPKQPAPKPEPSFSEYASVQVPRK
assay info: flow cytometry, ExpiCHO-S cells
assay endpoint: EC50

INSERT INTO results (binder, assay_endpoint, test_value) VALUES
  ('29AM4-5-LALA (IgG1) (antibody, V domains shown, human IgG1 LALA, kappa; also called 29AM4-5huIgG1LALA) VH: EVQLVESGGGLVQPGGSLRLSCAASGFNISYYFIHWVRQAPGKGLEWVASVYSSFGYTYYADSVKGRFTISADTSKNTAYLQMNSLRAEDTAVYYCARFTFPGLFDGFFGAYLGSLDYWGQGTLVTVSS VL: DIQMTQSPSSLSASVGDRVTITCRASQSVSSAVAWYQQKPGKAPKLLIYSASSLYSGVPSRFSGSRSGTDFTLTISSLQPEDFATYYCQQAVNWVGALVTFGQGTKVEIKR', 'EC50', '0.13 µg/mL'),
  ('humanized anti-SIRPα antibody 5 (antibody, human IgG1, kappa, L234A L235A, V domains shown, human IgG1 LALA, kappa; also called mAb 5) VH: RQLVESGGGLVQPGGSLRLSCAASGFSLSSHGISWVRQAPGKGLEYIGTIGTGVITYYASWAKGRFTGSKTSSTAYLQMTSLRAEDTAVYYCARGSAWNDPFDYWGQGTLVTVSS VL: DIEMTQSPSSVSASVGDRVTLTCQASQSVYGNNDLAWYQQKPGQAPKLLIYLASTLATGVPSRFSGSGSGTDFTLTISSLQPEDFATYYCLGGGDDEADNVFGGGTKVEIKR', 'EC50', '1.91 µg/mL');
